System: DAPI
methodSummary: TAG lipid buildup inhibition with viability readout – cell-based, panel, Nile Red and DAPI fluorescence, H9c2, dose response (AID 651630);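 also: cells exposed to compound overnight before fixation and staining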
runConditions: H9c2 cells, DAPI nuclear fluorescence (cytotoxicity counter-readout), oleic acid, run 2
measuredEndpoint: IC50 cytotoxicity (DAPI nuclear signal decrease)

Examples with their reported IC50 cytotoxicity (DAPI nuclear signal decrease) follow.
[[record]]
compound = "C/C(=N\\Nc1ccc(Cl)nn1)c1ccccc1O"
assayvalue = "> 25 µM"

[[record]]
compound = "CCc1ccc(/C=N/NC(=O)c2cc(C3CC3)nc3ccc(Br)cc23)s1"
assayvalue = "> 25 µM"

[[record]]
compound = "CCN(CC)S(=O)(=O)c1ccc(N2CCOCC2)c(NC(=O)c2[nH]c(C)c(C(C)=O)c2C)c1"
assayvalue = "> 25 µM"


Okay, now this compound:
Enter reported IC50 cytotoxicity (DAPI nuclear signal decrease) observed with DAPI for CCOC(=O)c1cc(CC)sc1NC(=O)c1cc([N+](=O)[O-])ccc1N1CCOCC1 > 25 µM
